Experiment: PK of compound of Formula (Ia) after single subcutaneous dose of solution formulations in Wistar Han rats
Type: in vivo
Details: male, Wistar Han, rat, plasma, sc, 50 mg/kg, 5376 h; mean, n = 3 rats; SC 50 mg/kg; solution S, 500 mg/mL
Protocol: Formulations containing the compound of Formula (Ia), or a pharmaceutically acceptable salt thereof, were prepared as solutions and optionally administered subcutaneously or intramuscularly to rats, rabbits, and/or dogs. A solution of about 400 mg/mL of the compound of Formula (Ia) having 19.14 w/w % water, 40.66 w/w % PEG 300, 35.20 w/w % of a sodium salt of a compound of Formula (Ia), and 5.00% ethanol was prepared. […]
value.kind: concentration at 5376 h

CC(C)(C#Cc1ccc(-c2ccc(Cl)c3c(NS(C)(=O)=O)nn(CC(F)(F)F)c23)c([C@H](Cc2cc(F)cc(F)c2)NC(=O)Cn2nc(C(F)(F)F)c3c2C(F)(F)[C@@H]2C[C@H]32)n1)S(C)(=O)=O; 58.8 nM
